relative viability reference
Tested on: LC-2-ad
method: relative viability (nuclei count vs DMSO), 5 days (fraction); higher = more cells survive
assay.context: first compound 2.53 µM
Answer field: number only, no words.

Reported relative viability, molecule COc1nc(C)cnc1NS(=O)(=O)c1cccnc1-c1ccc(-c2nnco2)cc1 [Zibotentan] + Cc1nc(NC(=O)N2CCC[C@H]2C(N)=O)sc1-c1ccnc(C(C)(C)C(F)(F)F)c1 [Alpelisib] (partner 2 µM) : ____
1.03

Reported relative viability, molecule COc1nc(C)cnc1NS(=O)(=O)c1cccnc1-c1ccc(-c2nnco2)cc1 [Zibotentan] + CCNC(=O)c1noc(-c2cc(C(C)C)c(O)cc2O)c1-c1ccc(CN2CCOCC2)cc1 [Luminespib] (partner 0.01 µM) : ____
1.06

Reported relative viability, molecule O=c1cc(-c2cccc3c2Sc2ccccc2S3)oc(N2CCOCC2)c1 + CC(=O)Nc1cccc(-n2c(=O)n(C3CC3)c(=O)c3c(Nc4ccc(I)cc4F)n(C)c(=O)c(C)c32)c1 [Trametinib] (partner 0.02 µM) : ____
0.858

Here is the next item to consider.
Reported relative viability, molecule O=c1cc(-c2cccc3c2Sc2ccccc2S3)oc(N2CCOCC2)c1 + CC1(C)CCC(c2ccc(Cl)cc2)=C(CN2CCN(c3ccc(C(=O)NS(=O)(=O)c4ccc(N[C@H](CCN5CCOCC5)CSc5ccccc5)c(S(=O)(=O)C(F)(F)F)c4)cc3)CC2)C1 [Navitoclax] (partner 0.5 µM) : ____
0.421

---

relative viability reference
Tested on: NCI-H522
method: relative viability (nuclei count vs DMSO), 5 days (fraction); higher = more cells survive
assay.context: first compound 0.03162 µM
Answer field: number only, no words.

Field: relative viability (NCI-H522). Entry: O=c1cc(N2CCOCC2)oc2c(-c3cccc4c3sc3ccccc34)cccc12 + COc1cccc2cc(-c3nc([C@H]4CC[C@H](C(=O)O)CC4)n4ncnc(N)c34)[nH]c12 [OSI-027] (partner 0.5 µM)
0.708

Here is the next item to consider.
Field: relative viability (NCI-H522). Entry: CCN(CC)CCCCNc1ncc2cc(-c3cc(OC)cc(OC)c3)c(NC(=O)NC(C)(C)C)nc2n1 + COc1cccc2cc(-c3nc([C@H]4CC[C@H](C(=O)O)CC4)n4ncnc(N)c34)[nH]c12 [OSI-027] (partner 0.5 µM)
0.625

---

Test system: NCI-H1623
method: relative viability (nuclei count vs DMSO), 5 days (fraction); higher = more cells survive
assay.context: first compound 1 µM
relative viability reference

Reported relative viability, compound O=c1cc(N2CCOCC2)oc2c(-c3cccc4c3sc3ccccc34)cccc12 + COc1cccc2cc(-c3nc([C@H]4CC[C@H](C(=O)O)CC4)n4ncnc(N)c34)[nH]c12 [OSI-027] (partner 0.5 µM) : ____
0.429

Reported relative viability, compound CCN(CC)CCCCNc1ncc2cc(-c3cc(OC)cc(OC)c3)c(NC(=O)NC(C)(C)C)nc2n1 + Cc1nc(Nc2ncc(C(=O)Nc3c(C)cccc3Cl)s2)cc(N2CCN(CCO)CC2)n1 [Dasatinib] (partner 0.075 µM) : ____
0.516

Reported relative viability, compound O=c1cc(N2CCOCC2)oc2c(-c3cccc4c3sc3ccccc34)cccc12 + Cc1cc(Nc2cc(N3CCN(C)CC3)nc(Sc3ccc(NC(=O)C4CC4)cc3)n2)n[nH]1 [Tozasertib] (partner 0.1 µM) : ____
0.343

Reported relative viability, compound CCN(CC)CCCCNc1ncc2cc(-c3cc(OC)cc(OC)c3)c(NC(=O)NC(C)(C)C)nc2n1 + Cc1cc(Nc2cc(N3CCN(C)CC3)nc(Sc3ccc(NC(=O)C4CC4)cc3)n2)n[nH]1 [Tozasertib] (partner 0.1 µM) : ____
0.416

Continuing:
Reported relative viability, compound CCN(CC)CCCCNc1ncc2cc(-c3cc(OC)cc(OC)c3)c(NC(=O)NC(C)(C)C)nc2n1 + COc1cc2c(Oc3ccc(NC(=O)C4(C(=O)Nc5ccc(F)cc5)CC4)cc3F)ccnc2cc1OCCCN1CCOCC1 [Foretinib] (partner 0.25 µM) : ____
0.874

---

System: NCI-H2347
method: relative viability (nuclei count vs DMSO), 5 days (fraction); higher = more cells survive
assay.context: first compound 0.08 µM
observable: relative viability
Answer field: number only, no words.

Field: relative viability (NCI-H2347). Entry: O=c1cc(-c2cccc3c2Sc2ccccc2S3)oc(N2CCOCC2)c1 + C[C@@H](Oc1cc(-c2cnn(C3CCNCC3)c2)cnc1N)c1c(Cl)ccc(F)c1Cl [Crizotinib] (partner 1 µM)
0.654

Field: relative viability (NCI-H2347). Entry: O=c1cc(-c2cccc3c2Sc2ccccc2S3)oc(N2CCOCC2)c1 + COc1cccc2cc(-c3nc([C@H]4CC[C@H](C(=O)O)CC4)n4ncnc(N)c34)[nH]c12 [OSI-027] (partner 0.5 µM)
0.421

Continuing:
Field: relative viability (NCI-H2347). Entry: O=c1cc(-c2cccc3c2Sc2ccccc2S3)oc(N2CCOCC2)c1 + Cc1nc(NC(=O)N2CCC[C@H]2C(N)=O)sc1-c1ccnc(C(C)(C)C(F)(F)F)c1 [Alpelisib] (partner 2 µM)
1.03

---

Tested on: NCI-H1623
method: relative viability (nuclei count vs DMSO), 5 days (fraction); higher = more cells survive
assay.context: first compound 2.53 µM
Consider the cut-off 0.5. If the recorded relative viability is strictly smaller, the label is Yes; if not, the label is No.

A selection of reference data follows.
Quick check: does O=c1cc(-c2cccc3c2Sc2ccccc2S3)oc(N2CCOCC2)c1 + N=C(N)NC(=N)NCCc1ccccc1 [Phenformin] (partner 250 µM) have relative viability under 0.5?
No

Quick check: does O=c1cc(-c2cccc3c2Sc2ccccc2S3)oc(N2CCOCC2)c1 + COc1cc2c(Oc3ccc(NC(=O)C4(C(=O)Nc5ccc(F)cc5)CC4)cc3F)ccnc2cc1OCCCN1CCOCC1 [Foretinib] (partner 0.25 µM) have relative viability under 0.5?
No

Quick check: does COc1nc(C)cnc1NS(=O)(=O)c1cccnc1-c1ccc(-c2nnco2)cc1 [Zibotentan] + Cc1cc(Nc2cc(N3CCN(C)CC3)nc(Sc3ccc(NC(=O)C4CC4)cc3)n2)n[nH]1 [Tozasertib] (partner 0.1 µM) have relative viability under 0.5?
Yes

Quick check: does COc1nc(C)cnc1NS(=O)(=O)c1cccnc1-c1ccc(-c2nnco2)cc1 [Zibotentan] + N=C(N)NC(=N)NCCc1ccccc1 [Phenformin] (partner 250 µM) have relative viability under 0.5?
No

Continuing:
Quick check: does O=c1cc(-c2cccc3c2Sc2ccccc2S3)oc(N2CCOCC2)c1 + CCNC(=O)c1noc(-c2cc(C(C)C)c(O)cc2O)c1-c1ccc(CN2CCOCC2)cc1 [Luminespib] (partner 0.01 µM) have relative viability under 0.5?
Yes

---

Tested on: NCI-H1651
method: relative viability (nuclei count vs DMSO), 5 days (fraction); higher = more cells survive
assay.context: first compound 2.53 µM
Consider the cut-off 0.5. If the recorded relative viability is strictly smaller, the label is 1; if not, the label is 0.

A selection of reference data follows.
Quick check: does COc1nc(C)cnc1NS(=O)(=O)c1cccnc1-c1ccc(-c2nnco2)cc1 [Zibotentan] + Cc1nc(Nc2ncc(C(=O)Nc3c(C)cccc3Cl)s2)cc(N2CCN(CCO)CC2)n1 [Dasatinib] (partner 0.075 µM) have relative viability under 0.5?
1

Quick check: does O=c1cc(-c2cccc3c2Sc2ccccc2S3)oc(N2CCOCC2)c1 + COc1cc2c(Oc3ccc(NC(=O)C4(C(=O)Nc5ccc(F)cc5)CC4)cc3F)ccnc2cc1OCCCN1CCOCC1 [Foretinib] (partner 0.25 µM) have relative viability under 0.5?
0

Quick check: does COc1nc(C)cnc1NS(=O)(=O)c1cccnc1-c1ccc(-c2nnco2)cc1 [Zibotentan] + COc1cccc2cc(-c3nc([C@H]4CC[C@H](C(=O)O)CC4)n4ncnc(N)c34)[nH]c12 [OSI-027] (partner 0.5 µM) have relative viability under 0.5?
0

Lab note: next molecule to report on.
Quick check: does O=c1cc(-c2cccc3c2Sc2ccccc2S3)oc(N2CCOCC2)c1 + N=C(N)NC(=N)NCCc1ccccc1 [Phenformin] (partner 250 µM) have relative viability under 0.5?
1

---

System: BEN
method: relative viability (nuclei count vs DMSO), 5 days (fraction); higher = more cells survive
assay.context: first compound 0.1 µM
observable: relative viability
Answer field: number only, no words.

Examples with their reported relative viability follow.
Field: relative viability (BEN). Entry: O=c1cc(N2CCOCC2)oc2c(-c3cccc4c3sc3ccccc34)cccc12 + Nc1nc2[nH]cc(CCc3ccc(C(=O)N[C@@H](CCC(=O)O)C(=O)O)cc3)c2c(=O)[nH]1 [Pemetrexed] (partner 0.2 µM)
0.653

Field: relative viability (BEN). Entry: CCN(CC)CCCCNc1ncc2cc(-c3cc(OC)cc(OC)c3)c(NC(=O)NC(C)(C)C)nc2n1 + CC(=O)Nc1cccc(-n2c(=O)n(C3CC3)c(=O)c3c(Nc4ccc(I)cc4F)n(C)c(=O)c(C)c32)c1 [Trametinib] (partner 0.02 µM)
0.978

Field: relative viability (BEN). Entry: CCN(CC)CCCCNc1ncc2cc(-c3cc(OC)cc(OC)c3)c(NC(=O)NC(C)(C)C)nc2n1 + Cc1nc(NC(=O)N2CCC[C@H]2C(N)=O)sc1-c1ccnc(C(C)(C)C(F)(F)F)c1 [Alpelisib] (partner 2 µM)
0.882

Field: relative viability (BEN). Entry: O=c1cc(N2CCOCC2)oc2c(-c3cccc4c3sc3ccccc34)cccc12 + COc1cccc2cc(-c3nc([C@H]4CC[C@H](C(=O)O)CC4)n4ncnc(N)c34)[nH]c12 [OSI-027] (partner 0.5 µM)
0.302

Field: relative viability (BEN). Entry: O=c1cc(N2CCOCC2)oc2c(-c3cccc4c3sc3ccccc34)cccc12 + O=C(c1cc(Cc2n[nH]c(=O)c3ccccc23)ccc1F)N1CCN(C(=O)C2CC2)CC1 [Olaparib] (partner 8 µM)
1.21

Field: relative viability (BEN). Entry: CCN(CC)CCCCNc1ncc2cc(-c3cc(OC)cc(OC)c3)c(NC(=O)NC(C)(C)C)nc2n1 + Nc1nc2[nH]cc(CCc3ccc(C(=O)N[C@@H](CCC(=O)O)C(=O)O)cc3)c2c(=O)[nH]1 [Pemetrexed] (partner 0.2 µM)
0.826

Field: relative viability (BEN). Entry: O=c1cc(N2CCOCC2)oc2c(-c3cccc4c3sc3ccccc34)cccc12 + CC(=O)c1c(C)c2cnc(Nc3ccc(N4CCNCC4)cn3)nc2n(C2CCCC2)c1=O [Palbociclib] (partner 0.5 µM)
0.476

Field: relative viability (BEN). Entry: O=c1cc(N2CCOCC2)oc2c(-c3cccc4c3sc3ccccc34)cccc12 + CCNC(=O)c1noc(-c2cc(C(C)C)c(O)cc2O)c1-c1ccc(CN2CCOCC2)cc1 [Luminespib] (partner 0.01 µM)
0.236

Continuing:
Field: relative viability (BEN). Entry: O=c1cc(N2CCOCC2)oc2c(-c3cccc4c3sc3ccccc34)cccc12 + Cc1cc(Nc2cc(N3CCN(C)CC3)nc(Sc3ccc(NC(=O)C4CC4)cc3)n2)n[nH]1 [Tozasertib] (partner 0.1 µM)
0.482

Field: relative viability (BEN). Entry: CCN(CC)CCCCNc1ncc2cc(-c3cc(OC)cc(OC)c3)c(NC(=O)NC(C)(C)C)nc2n1 + CC1(C)CCC(c2ccc(Cl)cc2)=C(CN2CCN(c3ccc(C(=O)NS(=O)(=O)c4ccc(N[C@H](CCN5CCOCC5)CSc5ccccc5)c(S(=O)(=O)C(F)(F)F)c4)cc3)CC2)C1 [Navitoclax] (partner 0.5 µM)
0.0454
